Sourced from patent US20170224836A1

Tested on: T1, human CDH6 on cells (human, UniProt P55285 54-790)
T1 sequence: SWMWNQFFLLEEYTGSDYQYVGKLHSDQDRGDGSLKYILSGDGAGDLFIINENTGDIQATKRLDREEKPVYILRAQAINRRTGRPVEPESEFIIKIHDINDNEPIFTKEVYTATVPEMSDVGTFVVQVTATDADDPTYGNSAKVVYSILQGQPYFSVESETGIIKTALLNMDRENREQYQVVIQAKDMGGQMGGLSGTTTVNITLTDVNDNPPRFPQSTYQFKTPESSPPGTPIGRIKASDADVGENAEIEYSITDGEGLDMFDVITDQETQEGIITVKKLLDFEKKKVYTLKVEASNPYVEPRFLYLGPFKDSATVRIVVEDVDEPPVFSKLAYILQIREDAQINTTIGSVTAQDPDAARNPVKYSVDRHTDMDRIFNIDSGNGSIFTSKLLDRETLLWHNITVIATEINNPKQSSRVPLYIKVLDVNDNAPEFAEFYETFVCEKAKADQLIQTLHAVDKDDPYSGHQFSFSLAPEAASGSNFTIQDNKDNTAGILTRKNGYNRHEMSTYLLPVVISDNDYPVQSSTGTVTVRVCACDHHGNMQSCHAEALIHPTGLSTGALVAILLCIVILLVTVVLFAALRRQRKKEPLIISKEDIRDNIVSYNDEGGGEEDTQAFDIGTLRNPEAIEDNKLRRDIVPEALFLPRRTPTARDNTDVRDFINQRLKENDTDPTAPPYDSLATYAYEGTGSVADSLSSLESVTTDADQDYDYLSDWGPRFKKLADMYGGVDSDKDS
Assay name: cell-based or functional assay
Readout name: percent inhibition at 1.22 nM ADC, NCIH661 cells

NOV0718-SMCC-DM1 (antibody, human IgG1, lambda, V domains shown, SMCC-DM1 on primary amines, sites not stated) VH: QVQLVESGGGLVKPGGSLRLSCAASGFTFNSYALHWVRQAPGKGLEWVGRIKSKTNGGTTDYAAPVKGRFTISRDDSKNTLYLQMNSLKTEDTAVYYCARVDATYSYSGYYYPMDYWGQGTLVTVSS VL: DIELTQPPSVSVSPGQTASITCSGDKIPTYTVHWYQQKPGQAPVLVIYDDNKRPSGIPERFSGSNSGNTATLTISGTQAEDEADYYCQSTASGTVVFGGGTKLTVLG | 2.51%
NOV0720-SMCC-DM1 (antibody, human IgG1, lambda, V domains shown, SMCC-DM1 on primary amines, sites not stated) VH: QVQLQQSGPGLVKPSQTLSLTCAISGDSVSSNSAGWNWIRQSPSRGLEWLGRIYYRSKWYNDYAVSVKSRITINPDTSKNQFSLQLNSVTPEDTAVYYCAREKYTVSFYDFFDYWGQGTLVTVSS VL: DIELTQPPSVSVSPGQTASITCSGDNIGSMTAHWYQQKPGQAPVLVIYDKNERPSGIPERFSGSNSGNTATLTISGTQAEDEADYYCQSWDDSYNSVVFGGGTKLTVLG | 1.94%

Reported percent inhibition at 1.22 nM ADC, NCIH661 cells, binder NOV0709-SMCC-DM1 (antibody, human IgG1, lambda, V domains shown, SMCC-DM1 on primary amines, sites not stated) VH: QVQLLESGGGLVQPGGSLRLSCAASGFTFSTYYMHWVRQAPGKGLEWVSVISSDGSFTFYADSVKGRFTISRDNSKNTLYLQMNSLRAEDTAVYYCARHGYGAFDYWGQGTLVTVSS VL: DIALTQPASVSGSPGQSITISCTGTSSDVGSYNYVSWYQQHPGKAPKLMIYYVSNRPSGVSNRFSGSKSGNTASLTISGLQAEDEADYYCASYTHQGSWVFGGGTKLTVLG : ____
5.91%
